The measurements presented in this section are drawn from PubChem BioAssay (NCATS).

target: Furin (Homo sapiens) (UniProt P09958); assay: Furin counterscreen qHTS for Zika virus inhibitors (AID 1347149); conditions: furin enzymatic counterscreen, fluorogenic substrate; series mostly up to 57.5 µM; further: nearly all actives have a fitted effect of over 70% in size
Sequence (P09958 whole entry, looked up): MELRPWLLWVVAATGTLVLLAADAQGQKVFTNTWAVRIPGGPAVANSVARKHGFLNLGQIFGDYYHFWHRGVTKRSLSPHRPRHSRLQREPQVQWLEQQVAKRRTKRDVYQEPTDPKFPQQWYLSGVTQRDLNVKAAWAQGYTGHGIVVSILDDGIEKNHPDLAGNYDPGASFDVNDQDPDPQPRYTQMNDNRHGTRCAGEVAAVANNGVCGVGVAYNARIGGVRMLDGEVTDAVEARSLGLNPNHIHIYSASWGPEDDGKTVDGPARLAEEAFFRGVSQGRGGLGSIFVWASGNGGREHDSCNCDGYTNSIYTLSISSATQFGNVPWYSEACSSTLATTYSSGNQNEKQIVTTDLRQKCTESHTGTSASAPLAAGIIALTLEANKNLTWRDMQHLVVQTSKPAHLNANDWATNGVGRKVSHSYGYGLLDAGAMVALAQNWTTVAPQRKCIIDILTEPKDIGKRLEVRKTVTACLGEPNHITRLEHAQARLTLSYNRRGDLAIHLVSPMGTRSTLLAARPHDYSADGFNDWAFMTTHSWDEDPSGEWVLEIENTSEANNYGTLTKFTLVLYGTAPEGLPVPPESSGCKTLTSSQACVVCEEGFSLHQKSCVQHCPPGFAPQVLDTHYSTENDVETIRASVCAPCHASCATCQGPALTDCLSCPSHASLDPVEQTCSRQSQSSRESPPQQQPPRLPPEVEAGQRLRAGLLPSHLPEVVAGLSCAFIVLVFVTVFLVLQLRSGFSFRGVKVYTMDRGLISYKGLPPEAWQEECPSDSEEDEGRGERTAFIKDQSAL
Records with an inconclusive call do not appear. Active and inactive are the calls of the source. The call rests on the fitted dose curve; in most records, active means well fitted inhibition curve with a large enough effect; inconclusive means small, poorly fitted or top-dose-only effect; inactive means no such curve, though single readings can be large or run the other way.
Answer with one of the outcomes 1.0 (active), 0.0 (inactive)

Please review the following examples before continuing.
- COMPOUND: "Nc1nc(N)c2nc(CNc3ccc(C(=O)NC(CCC(=O)O)C(=O)O)cc3)cnc2n1 (configuration not stated)"
  ASSIGNED_LABEL: 1.0
- COMPOUND: "CC(C)(Sc1cc(C(C)(C)C)c(O)c(C(C)(C)C)c1)Sc1cc(C(C)(C)C)c(O)c(C(C)(C)C)c1"
  ASSIGNED_LABEL: 0.0
- COMPOUND: "CNC(=O)c1cc(Oc2ccc(NC(=O)Nc3ccc(Cl)c(C(F)(F)F)c3)cc2)ccn1"
  ASSIGNED_LABEL: 0.0

Which outcome did this test record for the compound COc1ccc(-c2ccc3cc(C(=O)O)ccc3c2)cc1C12CC3CC(CC(C3)C1)C2 ?
0.0

Try the compound OCc1ccc(-c2nn(Cc3ccccc3)c3ccccc23)o1
1.0

Try the compound CCCc1nc(C)c2c(=O)[nH]c(-c3cc(S(=O)(=O)N4CCN(CC)CC4)ccc3OCC)nn12
0.0

Try the compound COc1cc(NCc2ccc3nc(N)nc(N)c3c2C)cc(OC)c1OC
1.0
